# experimental_details: Quantitative highthroughput screen to assess conditional lethalithy of SEM cells grown in Human Plasma-Like Medium with dialyzed fetal bovine serum (HPLM+ds) (AID 1963882); also: nearly all actives have a fitted effect of over 35% in size
# experimental_setup: SEM B-ALL cells in HPLM+ds, CellTiter-Glo viability, 48 h; series mostly up to 45.8 µM
Results filed as inconclusive are left out. The source made the active and inactive calls. Calls follow the shape of the dose curve; as a rule, active = well fitted cell-killing curve with a large enough effect; inconclusive = small, poorly fitted or top-dose-only effect, or effect the other way; inactive = no such curve, though single readings can be large or run the other way.
Could you please pick one outcome from this set? active, inactive

Worked cases, answers included:
>>> df
                                   molecule  assigned_class
0  NC(=O)c1cnc(N[C@@H]2CCCC[C@@H]2N)nc1Nc1cccc(-n2nccn2)c1          active
1          COc1ccc(-c2coc3cc(O)ccc3c2=O)cc1        inactive
2  OC[C@H]1OC(O)C[C@@H](O)[C@H]1O (stereo not given in full)        inactive
3  COC(=O)N1CC2(CC2)C[C@H](C(=O)NO)[C@H]1C(=O)N1CCN(c2ccccc2)CC1          active
4  O=C(O)c1cn(-c2ccc(F)cc2)c2cc(N3CCNCC3)c(F)cc2c1=O        inactive

[ask] Which result was noted for this molecule in the test: `O=C(NCc1ccccc1)c1csc(Nc2ccncn2)n1`
[reply] active

[ask] Which result was noted for this molecule in the test: `O=C(Nc1cc(C(F)(F)F)cc(C(F)(F)F)c1)c1cc(Cl)ccc1O`
[reply] active

[ask] Which result was noted for this molecule in the test: `CC(C)(C)c1nc(-c2cccc(NS(=O)(=O)c3c(F)cccc3F)c2F)c(-c2ccnc(N)n2)s1`
[reply] inactive

[ask] Which result was noted for this molecule in the test: `Cc1cnc(C(=O)NCCc2ccc(S(=O)(=O)NC(=O)NC3CCCCC3)cc2)cn1`
[reply] inactive

[ask] Which result was noted for this molecule in the test: `Nc1nc2c(c(=O)[nH]1)N(C=O)[C@H](CNc1ccc(C(=O)N[C@@H](CCC(=O)O)C(=O)O)cc1)CN2`
[reply] inactive

###

# experimental_details: Quantitative highthroughput screen to assess conditional lethalithy of P12 Ichikawa cells grown in Human Plasma-Like Medium with dialyzed fetal bovine serum (HPLM+ds) (AID 1963879); also: nearly all actives have a fitted effect of over 35% in size
# experimental_setup: ATP luminescence, 48 h; viability; series mostly up to 45.8 µM
Results filed as inconclusive are left out. Activity calls are given as the source filed them. Calls come from the whole dose curve; as a rule, active = well fitted cell-killing curve with a large enough effect; inconclusive = small, poorly fitted or top-dose-only effect; inactive = flat fitted curve, though single readings scatter.
Could you please pick one outcome from this set? TRUE for active, FALSE for inactive

Worked cases, answers included:
In [3]: df
Out[3]:
                                   compound  assigned_class
0  CCN1C[C@H](C)n2c(c(O)c3c(=O)n(Cc4ccc(F)c(Cl)c4)nc(C(=O)NC)c32)C1=O           FALSE
1  CN(C)C/C=C/C(=O)Nc1ccc(C(=O)Nc2cccc(Nc3ncc(Cl)c(-c4c[nH]c5ccccc45)n3)c2)cc1            TRUE

[ask] Which result was noted for this compound in the test: Cc1ccccc1C(C(=O)NC1CCCC1)N(C(=O)Cn1cnc2ccccc21)c1cccc(F)c1 (stereo not given)
[reply] FALSE

[ask] Which result was noted for this compound in the test: `COc1cc(C(=O)NS(=O)(=O)c2ccccc2C)ccc1Cc1cn(C)c2ccc(NC(=O)OC3CCCC3)cc12`
[reply] FALSE

[ask] Which result was noted for this compound in the test: `O=c1[nH]cc(F)c(=O)[nH]1`
[reply] TRUE

###

# experimental_details: Quantitative highthroughput screen to assess conditional lethalithy of NOMO1 cells grown in RPMI1640 with dialyzed fetal bovine serum (RPMI+ds) (AID 1963877); also: nearly all actives have a fitted effect of over 30% in size;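 as to viability: 100% = DMSO control wells and 0% = empty wells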
# experimental_setup: NOMO1 in RPMI+dialyzed FBS viability, ATP luminescence, 48 h; series mostly up to 45.8 µM
Records with an inconclusive call do not appear. Active and inactive are the calls of the source. Calls follow the shape of the dose curve; as a rule, active = well fitted cell-killing curve with a large enough effect; inconclusive = small, poorly fitted or top-dose-only effect; inactive = flat fitted curve, though single readings scatter.
Could you please pick one outcome from this set? 1 = active, 0 = inactive

Worked cases, answers included:
compound	assigned_class
Clc1ccc(C(c2ccc(Cl)cc2)n2cc[n+](CC(OCc3ccc(Cl)cc3Cl)c3ccc(Cl)cc3Cl)c2)cc1 (configuration not stated)	1
C[C@@H]1O[C@@H](O[C@H]2CC[C@@]3(C)[C@H](CC[C@@H]4[C@H]3C[C@@H](O)[C@]3(C)[C@@H](C5=CC(=O)OC5)CC[C@]43O)C2)C[C@H](O)[C@@H]1O[C@H]1C[C@H](O)[C@H](O[C@H]2C[C@H](O)[C@@H](O)[C@@H](C)O2)[C@H](C)O1 (stereo in doubt)	1
O=C(C1CC1)N1CC[C@@H](Cc2n[nH]c(=O)n2-c2ccc(-c3ccc4occc4c3)cc2)C1	0
CCOc1cc(N)c(Cl)cc1C(=O)NCC1CN(Cc2ccc(F)cc2)CCO1 (configuration not stated)	0
Cc1ccnc(NS(=O)(=O)c2ccc(NC(=O)Nc3ccc(S(=O)(=O)Nc4nccc(C)n4)cc3)cc2)n1	1

[ask] Which result was noted for this compound in the test: `CC(C)Cn1cnc2c(N)nc3ccccc3c21`
[reply] 0

[ask] Which result was noted for this compound in the test: `CCCCCN(C)CCC(O)(P(=O)(O)O)P(=O)(O)O`
[reply] 0

###

# experimental_details: Quantitative highthroughput screen to assess conditional lethalithy of NOMO1 cells grown in RPMI1640 with dialyzed fetal bovine serum (RPMI+ds) (AID 1963877); also: nearly all actives have a fitted effect of over 30% in size;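 as to viability: 100% = DMSO control wells and 0% = empty wells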
# experimental_setup: NOMO1 in RPMI+dialyzed FBS viability, ATP luminescence, 48 h; series mostly up to 45.8 µM
Results filed as inconclusive are left out. Activity calls are given as the source filed them. Calls come from the whole dose curve; as a rule, active = well fitted cell-killing curve with a large enough effect; inconclusive = small, poorly fitted or top-dose-only effect; inactive = flat fitted curve, though single readings scatter.
Could you please pick one outcome from this set? active, inactive

Worked cases, answers included:
In [3]: df
Out[3]:
                                   molecule  assigned_class
0  CC1(C)CNc2cc(NC(=O)c3cccnc3NCc3ccncc3)ccc21        inactive
1  CN1CCC[C@H]1CCO[C@](C)(c1ccccc1)c1ccc(Cl)cc1        inactive
2  COc1cc2ncnc(Nc3ccc(F)c(Cl)c3)c2cc1NC(=O)C=CCN1CCCCC1        inactive
3  Clc1ccc2c(N3CCN(CCCN4CCN(c5ccnc6cc(Cl)ccc56)CC4)CC3)ccnc2c1        inactive
4  CCS(=O)(=O)Nc1ccc2[nH]c(O)c(C(=Nc3ccc(CN4CCCCC4)cc3)c3ccccc3)c2c1          active

[ask] Which result was noted for this molecule in the test: `CC(C)(C)c1cc(NC(=O)Nc2ccc(-c3cn4c(n3)sc3cc(OCCN5CCOCC5)ccc34)cc2)no1`
[reply] inactive

[ask] Which result was noted for this molecule in the test: `CN(C)CCOc1ccc(-c2nc(-c3ccc4c(c3)CCC4=NO)c(-c3ccncc3)[nH]2)cc1`
[reply] active

[ask] Which result was noted for this molecule in the test: `CC(Oc1ccc(O)cc1)(P(=O)(O)O)P(=O)(O)O`
[reply] active

[ask] Which result was noted for this molecule in the test: CC(O)(C#Cc1ccc2c(c1)N(c1nc(N)ncc1Cl)CC2)c1nccs1 (centres undefined)
[reply] inactive

###

# experimental_details: Quantitative highthroughput screen to assess conditional lethalithy of NOMO1 cells grown in Human Plasma-Like Medium with dialyzed fetal bovine serum (HPLM+ds) (AID 1963878); also: nearly all actives have a fitted effect of over 35% in size;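 as to viability: 100% = DMSO wells and 0% = empty wells on each plate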
# experimental_setup: NOMO1 AML cells in HPLM+ds, CellTiter-Glo viability, 48 h; series mostly up to 45.8 µM
Results filed as inconclusive are left out. Calls of active or inactive are those of the source. Calls come from the whole dose curve; as a rule, active = well fitted cell-killing curve with a large enough effect; inconclusive = small, poorly fitted or top-dose-only effect, or effect the other way; inactive = no such curve, though single readings can be large or run the other way.
Could you please pick one outcome from this set? active, inactive

In [3]: df
Out[3]:
                                   compound  assigned_class
0  COc1cc2nccc(Oc3ccc(NC(=O)Nc4cc(C)on4)c(Cl)c3)c2cc1OC        inactive
1  C[C@H]1[C@@H](OC(=O)CCC(=O)O)O[C@@H]2O[C@@]3(C)CC[C@@H]4[C@H](C)CC[C@@H]1[C@@]24OO3          active
2  CCOC(=O)C(C)Oc1cccc2c(=O)n(CC(=O)Nc3ccc4c(c3)OCCO4)ccc12 (stereo not drawn)        inactive
3  CNC(=O)c1cc(Oc2ccc(NC(=O)Nc3cc(C(C)(C)C)nn3-c3ccc4ncccc4c3)c(F)c2)ccn1        inactive
4  CCN1CCN(Cc2ccc(-c3cc4c(N[C@H](C)c5ccccc5)ncnc4[nH]3)cc2)CC1          active

[ask] Which result was noted for this compound in the test: `FC(F)c1nc2ccccc2n1-c1nc(N2CCOCC2)nc(N2CCOCC2)n1`
[reply] active

[ask] Which result was noted for this compound in the test: COc1ccc(COc2cc3oc(=O)c4cc(C(C)O)ccc4c3cc2OC)cc1 (stereo not drawn)
[reply] inactive

[ask] Which result was noted for this compound in the test: `CN[C@@H](C)[C@H]1[C@H](O)C[C@@]2(C)[C@@H]3CC[C@H]4C(C)(C)[C@@H](NC)CC[C@@]45C[C@@]35CC[C@]12C`
[reply] inactive

[ask] Which result was noted for this compound in the test: `COc1c(C)cnc(Cn2cnc3c(Cl)nc(N)nc32)c1C`
[reply] active

[ask] Which result was noted for this compound in the test: `CC(C)c1cc(C(C)C)c(CC(=O)NS(=O)(=O)Oc2c(C(C)C)cccc2C(C)C)c(C(C)C)c1`
[reply] inactive

[ask] Which result was noted for this compound in the test: `CCN1CCN(c2ccc(Nc3cc(N(C)C(=O)Nc4c(Cl)c(OC)cc(OC)c4Cl)ncn3)cc2)CC1`
[reply] active

[ask] Which result was noted for this compound in the test: COc1ccc(-c2nc3ccc(C4=NNC(=O)CC4C)cc3[nH]2)cc1 (stereo not drawn)
[reply] inactive

[ask] Which result was noted for this compound in the test: `Cn1cc(CNCC2CCN(c3ncc(C(=O)NO)cn3)CC2)c2ccccc21`
[reply] active

[ask] Which result was noted for this compound in the test: `CN(C)c1ccc2cc(C(=O)N[C@@H](CCCN=C(N)CCl)C(=O)NCc3ccccc3)ccc2c1`
[reply] active

[ask] Which result was noted for this compound in the test: `CC(C)CN(C[C@H](O)[C@H](Cc1ccccc1)NC(=O)O[C@H]1CCOC1)S(=O)(=O)c1ccc(N)cc1`
[reply] inactive

[ask] Which result was noted for this compound in the test: CN1c2cc(O)c(N=NC(N)=O)cc2CC1S(=O)(=O)O (stereo not drawn)
[reply] inactive

[ask] Which result was noted for this compound in the test: `Cn1c(CNc2ccc(C(=N)N)cc2)nc2cc(C(=O)N(CCC(=O)O)c3ccccn3)ccc21`
[reply] inactive

[ask] Which result was noted for this compound in the test: `C=CCNC1=C2C[C@@H](C)C[C@H](OC)[C@@H](O)[C@@H](C)C=C(C)[C@H](OC(N)=O)[C@@H](OC)C=CC=C(C)C(=O)NC(=CC1=O)C2=O`
[reply] active
